Target: cynomolgus PDL1, recombinant (Sino Biological) / PDL1-Fc chimeric protein (cynomolgus (Macaca fascicularis), UniProt G7PSE7 19-238)
Sequence (G7PSE7 entry or part of it mutant limits assumed): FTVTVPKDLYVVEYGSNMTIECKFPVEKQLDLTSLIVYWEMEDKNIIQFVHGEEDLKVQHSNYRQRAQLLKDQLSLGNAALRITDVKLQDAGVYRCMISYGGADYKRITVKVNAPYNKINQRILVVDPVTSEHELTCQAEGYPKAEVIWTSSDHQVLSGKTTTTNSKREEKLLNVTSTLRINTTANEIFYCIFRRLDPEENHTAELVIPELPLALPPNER
Test: SPR Biacore T200; cynomolgus PDL1 (Sino Biological) captured; scFv as analyte
Description: After each analyte injection cycle, the CM5 sensor chip was regenerated and new antigen was captured. The scFvs were injected as analyte using a dose response multicycle kinetic assay with concentrations of the analyte ranging from 0.12 to 30 nM diluted in running buffer for 5 min and dissociation of the protein was allowed to proceed for 12 min. Obtained sensorgrams were fitted using the 1:1 binding model.
As shown below, each of these binders has a reported koff value.
Reply numerically in s⁻¹, unit not repeated.

PRO1392 (33-03-G02-sc18 scFv) (scFv) scFv: DIQMTQSPSSLSASVGDRVTITCQASQSINDYLAWYQQKPGKAPKLLIYKASTLASGVPSRFSGSGSGTDFTLTISSLQPEDFATYYCQQGYIITDIDNVFGTGTKVTVLGGGGGSGGGGSGGGGSGGGGSQVQLQESGPGLVKPSETLSLTCKASGFSFSSGYDMCWVRQPPGKGLEWIACVVAGSVDITYYASWAKGRVTISKDSSKNQVSLKLSSVTAADTAVYYCARKDAYSDAFNLWGQGTLVTVSS: 8.87e-05
PRO1347 (37-20-B03-sc09 scFv) (scFv) DIQMTQSPASLSASVGDRVTITCQASQSIGTYLAWYQQKPGKPPKLLIYRAFILASGVPSRFSGSGSGTDFTLTISSLQPEDFATYYCQSNFYSDSTTIGPNAFGTGTKVTVLGGGGGSGGGGSGGGGSGGGGSEVQLVESGGGLVQPGGSLRLSCAASGFSFNSDYWIYWVRQAPGKGLEWIACIYGGSSGNTQYASWAQGRFTISRDNSKNTVYLQMNSLRAEDTAVYFCARGYVDYGGATDLWGQGTLVTVSS: 8.77e-05
PRO1183 (33-03-G02-sc03 scFv) (scFv, also called 33_03_G02 sc03 Full) scFv: DFQLTQSPSSLSASVGDRVTITCQASQSINDYLAWYQQKPGKSPKLLIYKASTLASGVPSRFSGSGSGTDFTLTISSLQPEDFATYYCQQGYIITDIDNVFGTGTKVTVLGGGGGSGGGGSGGGGSGGGGSQSQLQESGPGLVKPSETLSLTCKASGFSFSSGYDMCWVRQPPGKGLEWIACVVAGSVDITYYASWAKGRVTISKDSSKNQVSLKLSSVTAADTAVYFCARKDAYSDAFNLWGQGTLVTVSS: 1.82e-05

Now for another entry.
Quick note, koff for PRO830 (33-03-G02-sc01 scFv) (scFv, also called 33-03-G02 CDR) scFv: DIQMTQSPSSLSASVGDRVTITCQASQSINDYLAWYQQKPGKAPKLLIYKASTLASGVPSRFSGSGSGTDFTLTISSLQPEDFATYYCQQGYIITDIDNVFGTGTKVTVLGGGGGSGGGGSGGGGSGGGGSQVQLQESGPGLVKPSETLSLTCKVSGFSFSSGYDMCWIRQPPGKGLEWIGCVVAGSVDITYYASWAKGRVTISVDSSKNQFSLKLSSVTAADTAVYYCARKDAYSDAFNLWGQGTLVTVSS landed at 0.000182

These entries and their values trace back to patent US20200283528A1.
